METHOD DESCRIPTION: Equilibrium solubility of the compound in FaSSIF at pH 6.5
Assay type: physicochemical

{"columns": ["CPD SMILES", "UNIT LABEL", "solubility thermodynamic"],
 "data": [
  ["N#Cc1cc(N2CCCC2=O)ccc1Sc1ccccc1CO", "mg/mL", 0.056]
]}

###

METHOD DESCRIPTION: Cytotoxicity against rat H9c2 cells assessed as reduction in cell viability measured for 72 hrs
Type: toxicity, cell-based
// IC50 at 72 h lookup, one value per entry

{"columns": ["CPD SMILES", "IC50 at 72 h"],
 "data": [
  ["COc1ccc(Sc2ccc(N3CCCC3=O)cc2C(F)(F)F)c(CO)c1", "> 50.1 µM"],
  ["O=C1CCCN1c1ccc(Sc2ccccc2CO)c(Cl)c1", "> 50.1 µM"],
  ["O=C1CCCN1c1ccc(Sc2ccccc2CO)nc1", "> 50.1 µM"],
  ["O=C1CCCN1c1ccc(Sc2ccccc2CO)c(OC(F)(F)F)c1", "> 50.1 µM"],
  ["Cc1ccc(CO)c(Sc2ccc(N3CCCC3=O)cc2C(F)(F)F)c1", "> 50.1 µM"],
  ["O=C1CCCN1c1ccc(Sc2ccc(F)cc2CO)c(C(F)(F)F)c1", "> 50.1 µM"],
  ["COc1cccc(CO)c1Sc1ccc(N2CCCC2=O)cc1C(F)(F)F", "> 50.1 µM"],
  ["O=C1CCCN1c1ccc(Sc2ccccc2CO)c(F)c1", "> 50.1 µM"],
  ["N#Cc1cc(N2CCCC2=O)ccc1Sc1ccccc1CO", "0.447 µM"],
  ["COCc1ccccc1Sc1ccc(N2CCCC2=O)cc1C#N", "31.6 µM"],
  ["Cc1ccc(Sc2ccc(N3CCCC3=O)cc2C(F)(F)F)c(CO)c1", "> 50.1 µM"],
  ["O=C1CCCN1c1ccc(Sc2ccccc2CO)cc1C(F)(F)F", "> 50.1 µM"]
]}

###

METHOD DESCRIPTION: AUC in BALB/c mouse at 50 mg/kg, po measured at 15 to 1440 mins by LC-MS/MS analysis
Format: ADME, organism-based
Parameters: time upper 1440 min, dose 50 mg/kg, time lower 15 min, route po
SETTINGS: in vivo

{"columns": ["CPD SMILES", "UNIT LABEL", "AUC"],
 "data": [
  ["O=C1CCCN1c1ccc(Sc2ccccc2CO)c(C(F)(F)F)c1", "ng·h/mL", 530]
]}

These measurements were taken from ChEMBL document CHEMBL5316312.
